assay summary: amyloid nucleation score (Sup35N fusion, yeast selection) (log enrichment); library NNK3; higher = more nucleation; inactive = no reads after selection;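 also: zero at mode of non-aggregating sequences after 7 days selection at 30°C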
readout kind: amyloid nucleation score

>  <substance>
FTRNEQP

>  <readout kind>
amyloid nucleation score

>  <readout value>
inactive

$$$$
>  <substance>
TRFGRSANWLFFSAPTGRQN

>  <readout kind>
amyloid nucleation score

>  <readout value>
inactive

$$$$
>  <substance>
LFAAYCFVYDIQFTRVPGAW

>  <readout kind>
amyloid nucleation score

>  <readout value>
inactive

$$$$
>  <substance>
PYGLLQFNG

>  <readout kind>
amyloid nucleation score

>  <readout value>
inactive

$$$$
>  <substance>
GLIDLRVCEGRQFARTGSEM

>  <readout kind>
amyloid nucleation score

>  <readout value>
0.132

$$$$
>  <substance>
LGNISCELARIELHAPAIR

>  <readout kind>
amyloid nucleation score

>  <readout value>
inactive

$$$$
>  <substance>
MSNGIVYNELFSVVRWS

>  <readout kind>
amyloid nucleation score

>  <readout value>
1.67

$$$$
>  <substance>
LLYVICPVRINLRHWRATDS

>  <readout kind>
amyloid nucleation score

>  <readout value>
0.487

$$$$
>  <substance>
GSFITSNA

>  <readout kind>
amyloid nucleation score

>  <readout value>
inactive

$$$$
>  <substance>
VMFLEDSVFV

>  <readout kind>
amyloid nucleation score

>  <readout value>
inactive

$$$$
>  <substance>
KWSLFLYRHGWCRLAGTLLV

>  <readout kind>
amyloid nucleation score

>  <readout value>
-0.443

$$$$
>  <substance>
RDLKFGWGWMGRTEISWYLF

>  <readout kind>
amyloid nucleation score

>  <readout value>
inactive

$$$$
>  <substance>
QVTDEGD

>  <readout kind>
amyloid nucleation score

>  <readout value>
inactive

$$$$
>  <substance>
FGTHFIESSNVNNNTPVVSP

>  <readout kind>
amyloid nucleation score

>  <readout value>
inactive

$$$$
>  <substance>
DAGELNILI

>  <readout kind>
amyloid nucleation score

>  <readout value>
inactive

$$$$
>  <substance>
NNFNISLRVRRSFKKCFFVR

>  <readout kind>
amyloid nucleation score

>  <readout value>
1.85

$$$$
>  <substance>
RFISLVRNYFFTCCRRRSMF

>  <readout kind>
amyloid nucleation score

>  <readout value>
inactive

$$$$
>  <substance>
VSFCGTPFFYHWRHSNWLFK

>  <readout kind>
amyloid nucleation score

>  <readout value>
inactive

$$$$
>  <substance>
DSADVMIAYASVVVVTIECC

>  <readout kind>
amyloid nucleation score

>  <readout value>
inactive

$$$$
>  <substance>
LKRYFI

>  <readout kind>
amyloid nucleation score

>  <readout value>
inactive

$$$$
>  <substance>
VYYACGMDVKNFWELRLWGD

>  <readout kind>
amyloid nucleation score

>  <readout value>
1.99

$$$$
>  <substance>
HSDVWSVRSGAYLLLYIQTM

>  <readout kind>
amyloid nucleation score

>  <readout value>
inactive

$$$$
>  <substance>
LSFIISCNYTINNNMWV

>  <readout kind>
amyloid nucleation score

>  <readout value>
2.91

$$$$
>  <substance>
LCVIWIVSHRRDCMAFCEQQ

>  <readout kind>
amyloid nucleation score

>  <readout value>
inactive

$$$$
>  <substance>
RDQEHSRTFISM

>  <readout kind>
amyloid nucleation score

>  <readout value>
inactive

$$$$
>  <substance>
TYFKSGRNILAHIYMWLILG

>  <readout kind>
amyloid nucleation score

>  <readout value>
inactive

$$$$
>  <substance>
AEIKMLLLQIHDS

>  <readout kind>
amyloid nucleation score

>  <readout value>
0.078

$$$$
>  <substance>
NERREANGWSYRDLHGSGFE

>  <readout kind>
amyloid nucleation score

>  <readout value>
inactive

$$$$
>  <substance>
SWGMLSY

>  <readout kind>
amyloid nucleation score

>  <readout value>
inactive

$$$$
>  <substance>
SDRNSEGLTLF

>  <readout kind>
amyloid nucleation score

>  <readout value>
inactive

$$$$
>  <substance>
VKVLYSIAMGIGHGSIGKVC

>  <readout kind>
amyloid nucleation score

>  <readout value>
-0.835

$$$$
>  <substance>
SLNFLR

>  <readout kind>
amyloid nucleation score

>  <readout value>
0.937

$$$$
>  <substance>
NVSLVTVWWDNHY

>  <readout kind>
amyloid nucleation score

>  <readout value>
inactive

$$$$
>  <substance>
LFLDVSIYVCPEGILRKS

>  <readout kind>
amyloid nucleation score

>  <readout value>
2.65

$$$$
>  <substance>
NVRVGILQR

>  <readout kind>
amyloid nucleation score

>  <readout value>
inactive

$$$$
>  <substance>
RMLRNF

>  <readout kind>
amyloid nucleation score

>  <readout value>
-0.466

$$$$
>  <substance>
RYRTRRALHVYDEFVFEFKP

>  <readout kind>
amyloid nucleation score

>  <readout value>
-0.057

$$$$
>  <substance>
DLIGYSEEV

>  <readout kind>
amyloid nucleation score

>  <readout value>
0.449

$$$$
>  <substance>
ILTNTIRGKVDSLRLFKTSW

>  <readout kind>
amyloid nucleation score

>  <readout value>
inactive

$$$$
>  <substance>
WKTTMALRSVLPGGYLHFCV

>  <readout kind>
amyloid nucleation score

>  <readout value>
inactive

$$$$
>  <substance>
YDRPSVVRTWRTREKAVSGP

>  <readout kind>
amyloid nucleation score

>  <readout value>
inactive

$$$$
>  <substance>
MVSMNSAAFLFRCHYCLGVR

>  <readout kind>
amyloid nucleation score

>  <readout value>
inactive

$$$$
>  <substance>
KYFIINYSVSSNGRKAHYCQ

>  <readout kind>
amyloid nucleation score

>  <readout value>
2.28

$$$$
>  <substance>
TVTLRRYLSMERPYTSIFSI

>  <readout kind>
amyloid nucleation score

>  <readout value>
inactive

$$$$
>  <substance>
YVPFNFMKHVIATVLSGV

>  <readout kind>
amyloid nucleation score

>  <readout value>
0.014

$$$$
>  <substance>
LLERDYR

>  <readout kind>
amyloid nucleation score

>  <readout value>
inactive

$$$$
>  <substance>
WFCNYRIMYKVSSIAPMLNP

>  <readout kind>
amyloid nucleation score

>  <readout value>
inactive

$$$$
>  <substance>
VASIFRVYAVVGWSVVLVGV

>  <readout kind>
amyloid nucleation score

>  <readout value>
inactive

$$$$
>  <substance>
TAESEMNQCVLSRYFSSAIR

>  <readout kind>
amyloid nucleation score

>  <readout value>
inactive

$$$$
>  <substance>
VFVVQNGMPTRFECVLGVQR

>  <readout kind>
amyloid nucleation score

>  <readout value>
inactive

$$$$
>  <substance>
LMMLCLSVGMMKRSAYRLFT

>  <readout kind>
amyloid nucleation score

>  <readout value>
inactive

$$$$
>  <substance>
LQRRYFGSRSLGTFARMFQH

>  <readout kind>
amyloid nucleation score

>  <readout value>
inactive

$$$$
>  <substance>
YTGYWTGLYYVFMEINGWGS

>  <readout kind>
amyloid nucleation score

>  <readout value>
inactive

$$$$
>  <substance>
LARHSCSSNVYGNLQRTFFG

>  <readout kind>
amyloid nucleation score

>  <readout value>
inactive

$$$$
>  <substance>
LNSKFMLASTLLAKW

>  <readout kind>
amyloid nucleation score

>  <readout value>
inactive

$$$$
>  <substance>
KFGFCDIMKGLFRRMLGLKV

>  <readout kind>
amyloid nucleation score

>  <readout value>
-1.06

$$$$
>  <substance>
IRGEFLQQPFIVDRNHVRWL

>  <readout kind>
amyloid nucleation score

>  <readout value>
inactive

$$$$
>  <substance>
AYKNRSFFLVVVITYNRVMP

>  <readout kind>
amyloid nucleation score

>  <readout value>
inactive

$$$$
>  <substance>
LFRLYKYLQCPSQGWCPRH

>  <readout kind>
amyloid nucleation score

>  <readout value>
inactive

$$$$
>  <substance>
RFLLVVMF

>  <readout kind>
amyloid nucleation score

>  <readout value>
inactive

$$$$
>  <substance>
PNNSLETTYFRVTWSFE

>  <readout kind>
amyloid nucleation score

>  <readout value>
inactive

$$$$
>  <substance>
RSSLNDNRYKCNSGSSVYGS

>  <readout kind>
amyloid nucleation score

>  <readout value>
inactive

$$$$
>  <substance>
YLSEPGNYRVSNVIGCNRID

>  <readout kind>
amyloid nucleation score

>  <readout value>
inactive

$$$$
>  <substance>
SFSLYLFPSRGLAPLPTAWL

>  <readout kind>
amyloid nucleation score

>  <readout value>
1.86

$$$$
>  <substance>
SCARSGTYIAVGIQSCCPRW

>  <readout kind>
amyloid nucleation score

>  <readout value>
1.5

$$$$
>  <substance>
IRCNRYVSL

>  <readout kind>
amyloid nucleation score

>  <readout value>
inactive

$$$$
>  <substance>
DFHSLKNDF

>  <readout kind>
amyloid nucleation score

>  <readout value>
inactive

$$$$
>  <substance>
HPVYMVSTRWRRGGSDWV

>  <readout kind>
amyloid nucleation score

>  <readout value>
inactive

$$$$
>  <substance>
GGWLLSEGLC

>  <readout kind>
amyloid nucleation score

>  <readout value>
inactive

$$$$
>  <substance>
YYLSFVKKCNDSEVIWTKSV

>  <readout kind>
amyloid nucleation score

>  <readout value>
inactive

$$$$
>  <substance>
LFFLTCRCVRNAYHRYMVCI

>  <readout kind>
amyloid nucleation score

>  <readout value>
inactive

$$$$
>  <substance>
YVVEICAV

>  <readout kind>
amyloid nucleation score

>  <readout value>
inactive

$$$$
>  <substance>
KTLTKSNIWIG

>  <readout kind>
amyloid nucleation score

>  <readout value>
-0.639

$$$$
